test: Parallel artificial membrane permeability assay (PAMPA); conditions: pH 7.4
test readout: Papp at 4 h, 10 mM (×10⁻⁶ cm/s)
Please respond with the number in ×10⁻⁶ cm/s and leave the unit unwritten.

Solved entries:
molecule="CC(C)=CCC12OC(C)(C)C3CC(C=C4C(=O)c5c(O)cccc5OC431)C2=O (stereo not shown) [DDO-6101, reference compound]" experimental_value=18
molecule="CC(C)=CCC12OC(C)(C)C3CC(C=C4C(=O)c5c(OCc6cn(CCCN7CCCCC7)nn6)cccc5OC431)C2=O (stereo not shown)" experimental_value=68.7
molecule="CC(C)=CCC12OC(C)(C)C3CC(C=C4C(=O)c5c(OCc6cn(CCN(C)C)nn6)cccc5OC431)C2=O (stereo not shown)" experimental_value=91.4
molecule="CC(C)=CCC12OC(C)(C)C3CC(C=C4C(=O)c5c(OCc6cn(CCN7CCCC7)nn6)cccc5OC431)C2=O (stereo not shown)" experimental_value=91.9
molecule="CC(C)=CCC12OC(C)(C)C3CC(C=C4C(=O)c5c(OCc6cn(CCN7CCN(C)CC7)nn6)cccc5OC431)C2=O (stereo not shown)" experimental_value=67.5

[in] Complete the entry with Papp at 4 h, 10 mM for CC(C)=CCC12OC(C)(C)C3CC(C=C4C(=O)c5c(OCc6cn(CCCN7CCCC7)nn6)cccc5OC431)C2=O (stereo not shown)
[out] 66.4

[in] Complete the entry with Papp at 4 h, 10 mM for CC(C)=CCC12OC(C)(C)C3CC(C=C4C(=O)c5c(OCc6cn(CCN7CCCCC7)nn6)cccc5OC431)C2=O (stereo not shown)
[out] 78.2

* * *

test readout: melting point

Solved entries:
compound="CC(C)=CCC12OC(C)(C)C3CC(C=C4C(=O)c5c(OCc6cn(CCCN7CCOCC7)nn6)cccc5OC431)C2=O (stereo not drawn)" experimental_value="143 to 145 °C"
compound="CC(C)=CCC12OC(C)(C)C3CC(C=C4C(=O)c5c(OCc6cn(CCCN7CCCCC7)nn6)cccc5OC431)C2=O (stereo not drawn)" experimental_value="125 to 128 °C"
compound="CC(C)=CCC12OC(C)(C)C3CC(C=C4C(=O)c5c(OCc6cn(CCN7CCN(C)CC7)nn6)cccc5OC431)C2=O (stereo not drawn)" experimental_value="171 to 175 °C"
compound="CC(C)=CCC12OC(C)(C)C3CC(C=C4C(=O)c5c(OCc6cn(CCN7CCCCC7)nn6)cccc5OC431)C2=O (stereo not drawn)" experimental_value="173 to 176 °C"
compound="CC(C)=CCC12OC(C)(C)C3CC(C=C4C(=O)c5c(OCc6cn(CCN7CCCC7)nn6)cccc5OC431)C2=O (stereo not drawn)" experimental_value="168 to 170 °C"

Turning to the following compound.
[in] Complete the entry with melting point for CC(C)=CCC12OC(C)(C)C3CC(C=C4C(=O)c5c(OCc6cn(CCCN7CCCC7)nn6)cccc5OC431)C2=O (stereo not drawn)
[out] 144 to 146 °C

* * *

tested on: human hepatocellular carcinoma HepG2 cell line; test: MTT antiproliferative assay, HepG2; type: cell-based; settings: 72 h
test readout: IC50 (nM)
Please respond with the number in nM and leave the unit unwritten.

Solved entries:
molecule="CC(C)=CCC12OC(C)(C)C3CC(C=C4C(=O)c5c(OCc6cn(CCCN(C)C)nn6)cccc5OC431)C2=O (stereo not shown)" test_readout=IC50 experimental_value=1360
molecule="CC(C)=CCC12OC(C)(C)C3CC(C=C4C(=O)c5c(OCc6cn(CCN7CCOCC7)nn6)cccc5OC431)C2=O (stereo not shown)" test_readout=IC50 experimental_value=3790
molecule="CC(C)=CCC12OC(C)(C)C3CC(C=C4C(=O)c5c(OCc6cn(CCN7CCCC7)nn6)cccc5OC431)C2=O (stereo not shown)" test_readout=IC50 experimental_value=1190

Turning to the following molecule.
[in] Complete the entry with IC50 for CC(C)=CCC12OC(C)(C)C3CC(C=C4C(=O)c5c(OCc6cn(CCCN7CCOCC7)nn6)cccc5OC431)C2=O (stereo not shown)
[out] 3070

* * *

tested on: taxol-resistant A549 cell line (A549/taxol); assay: MTT antiproliferative assay, A549/taxol; assay type: cell-based; details: Homo sapiens, A549/Taxol; MTT, 72 h; read-out: IC50 A549/Taxol
test readout: IC50 (nM)
Please respond with the number in nM and leave the unit unwritten.

molecule="CC(C)=CCC12OC(C)(C)C3CC(C=C4C(=O)c5c(OCc6cn(CCCN(C)C)nn6)cccc5OC431)C2=O (stereo not drawn)" measurement_unit=nM experimental_value=1300
molecule="CC(C)=CCC12OC(C)(C)C3CC(C=C4C(=O)c5c(OCc6cn(CCCN7CCCCC7)nn6)cccc5OC431)C2=O (stereo not drawn)" measurement_unit=nM experimental_value=1290
molecule="CC(C)=CCC12OC(C)(C)C3CC(C=C4C(=O)c5c(OCc6cn(CCCN7CCN(C)CC7)nn6)cccc5OC431)C2=O (stereo not drawn)" measurement_unit=nM experimental_value=820

[in] Under taxol-resistant A549 cell line (A549/taxol), report IC50 for CC(C)=CCC12OC(C)(C)C3CC(C=C4C(=O)c5c(OCc6cn(CCCN7CCOCC7)nn6)cccc5OC431)C2=O (stereo not drawn)
[out] 550

[in] Under taxol-resistant A549 cell line (A549/taxol), report IC50 for CC(C)=CCC[C@]1(C)C=Cc2c(O)c3c(c(CC=C(C)C)c2O1)O[C@]12C(=C[C@@H]4C[C@H]1C(C)(C)O[C@@]2(C/C=C(/C)C(=O)O)C4=O)C3=O [GA, Gambogic acid, reference compound]
[out] 290

[in] Under taxol-resistant A549 cell line (A549/taxol), report IC50 for CC(C)=CCC12OC(C)(C)C3CC(C=C4C(=O)c5c(O)cccc5OC431)C2=O (stereo not drawn) [DDO-6101, reference compound]
[out] 460

[in] Under taxol-resistant A549 cell line (A549/taxol), report IC50 for CC(C)=CCC12OC(C)(C)C3CC(C=C4C(=O)c5c(OCc6cn(CCCN7CCCC7)nn6)cccc5OC431)C2=O (stereo not drawn)
[out] 1700

* * *

test: Aqueous solubility by HPLC; conditions: deionized water, thermodynamic from solid
Parameter solubility: see the listing below.
Please respond with the number in µM and leave the unit unwritten.

compound="CC(C)=CCC12OC(C)(C)C3CC(C=C4C(=O)c5c(OCc6cn(CCN(C)C)nn6)cccc5OC431)C2=O (centres unmarked) [Compound 8a]" measurement_unit=µM experimental_value=1120
compound="CC(C)=CCC12OC(C)(C)C3CC(C=C4C(=O)c5c(OCc6cn(CCN7CCCCC7)nn6)cccc5OC431)C2=O (centres unmarked) [Compound 8e]" measurement_unit=µM experimental_value=560
compound="CC(C)=CCC12OC(C)(C)C3CC(C=C4C(=O)c5c(OCc6cn(CCCN(C)C)nn6)cccc5OC431)C2=O (centres unmarked) [Compound 8b]" measurement_unit=µM experimental_value=1540
compound="CC(C)=CCC12OC(C)(C)C3CC(C=C4C(=O)c5c(OCc6cn(CCN7CCCC7)nn6)cccc5OC431)C2=O (centres unmarked) [Compound 8c]" measurement_unit=µM experimental_value=1400
compound="CC(C)=CCC12OC(C)(C)C3CC(C=C4C(=O)c5c(OCc6cn(CCCN7CCN(C)CC7)nn6)cccc5OC431)C2=O (centres unmarked) [Compound 8j]" measurement_unit=µM experimental_value=4020

[in] Complete the entry with solubility for CC(C)=CCC12OC(C)(C)C3CC(C=C4C(=O)c5c(OCc6cn(CCCN7CCCC7)nn6)cccc5OC431)C2=O (centres unmarked) [Compound 8d]
[out] 1920

[in] Complete the entry with solubility for CC(C)=CCC12OC(C)(C)C3CC(C=C4C(=O)c5c(OCc6cn(CCCN7CCCCC7)nn6)cccc5OC431)C2=O (centres unmarked) [Compound 8f]
[out] 880

[in] Complete the entry with solubility for CC(C)=CCC12OC(C)(C)C3CC(C=C4C(=O)c5c(OCc6cn(CCN7CCN(C)CC7)nn6)cccc5OC431)C2=O (centres unmarked) [Compound 8i]
[out] 3220

[in] Complete the entry with solubility for CC(C)=CCC12OC(C)(C)C3CC(C=C4C(=O)c5c(OCc6cn(CCCN7CCOCC7)nn6)cccc5OC431)C2=O (centres unmarked) [Compound 8h]
[out] 3700

[in] Complete the entry with solubility for CC(C)=CCC12OC(C)(C)C3CC(C=C4C(=O)c5c(OCc6cn(CCN7CCOCC7)nn6)cccc5OC431)C2=O (centres unmarked) [Compound 8g]
[out] 3020

* * *

assay: logD by potentiometric titration (Gemini Profiler); format: physicochemical; conditions: pH 7.4; measured on Gemini Profiler instrument (pION); read-out: Log D 7.4
Parameter logD: see the listing below.
A bare number is all that is needed in reply.

Solved entries:
compound="CC(C)=CCC12OC(C)(C)C3CC(C=C4C(=O)c5c(OCc6cn(CCN7CCN(C)CC7)nn6)cccc5OC431)C2=O (centres unmarked) [Compound 8i]" experimental_value=1
compound="CC(C)=CCC12OC(C)(C)C3CC(C=C4C(=O)c5c(OCc6cn(CCN(C)C)nn6)cccc5OC431)C2=O (centres unmarked) [Compound 8a]" experimental_value=2.1
compound="CC(C)=CCC12OC(C)(C)C3CC(C=C4C(=O)c5c(OCc6cn(CCCN7CCOCC7)nn6)cccc5OC431)C2=O (centres unmarked) [Compound 8h]" experimental_value=0.9
compound="CC(C)=CCC12OC(C)(C)C3CC(C=C4C(=O)c5c(OCc6cn(CCCN7CCN(C)CC7)nn6)cccc5OC431)C2=O (centres unmarked) [Compound 8j]" experimental_value=0.7
compound="CC(C)=CCC12OC(C)(C)C3CC(C=C4C(=O)c5c(OCc6cn(CCN7CCCC7)nn6)cccc5OC431)C2=O (centres unmarked) [Compound 8c]" experimental_value=2.2
compound="CC(C)=CCC12OC(C)(C)C3CC(C=C4C(=O)c5c(OCc6cn(CCCN7CCCC7)nn6)cccc5OC431)C2=O (centres unmarked) [Compound 8d]" experimental_value=1.6
compound="CC(C)=CCC12OC(C)(C)C3CC(C=C4C(=O)c5c(OCc6cn(CCCN(C)C)nn6)cccc5OC431)C2=O (centres unmarked) [Compound 8b]" experimental_value=1.8
compound="CC(C)=CCC12OC(C)(C)C3CC(C=C4C(=O)c5c(O)cccc5OC431)C2=O (centres unmarked) [DDO-6101, reference compound]" experimental_value=2.9

[in] Complete the entry with logD for CC(C)=CCC12OC(C)(C)C3CC(C=C4C(=O)c5c(OCc6cn(CCN7CCOCC7)nn6)cccc5OC431)C2=O (centres unmarked) [Compound 8g]
[out] 1.3

[in] Complete the entry with logD for CC(C)=CCC12OC(C)(C)C3CC(C=C4C(=O)c5c(OCc6cn(CCN7CCCCC7)nn6)cccc5OC431)C2=O (centres unmarked) [Compound 8e]
[out] 2.9

[in] Complete the entry with logD for CC(C)=CCC12OC(C)(C)C3CC(C=C4C(=O)c5c(OCc6cn(CCCN7CCCCC7)nn6)cccc5OC431)C2=O (centres unmarked) [Compound 8f]
[out] 2.7
